assay.details: Toxicity liver stage against HepG2, at 10uM
Format: cell-based
Set-up: test concentration 10 uM, cell line HepG2-A16-CD81EGFP
condition.description: human, HepG2-A16-CD81EGFP cells; read-out: INHIBITION
observation.type: cytotoxicity at 10 µM (%)
Answers are plain numbers, in %.

Examples with answers:
O=C(Nc1ccnc(OC2CCOC2)c1)C1CCC1 (stereo not given); 5.76
O=C(Cn1ccnc1)N1CC[C@H](Oc2cccc(F)c2)[C@@H](O)CC1; -0.59
O=C1CCC2(CCNCC2)CN1CCCNc1cccnc1; -6.46
NCC1(CN2CCOCC2)CCCCC1; 3.23
CO[C@H]1CCN(C(=O)c2cc(C)on2)C[C@@H]1Cc1ccccc1; 4.06
CC1(C)Cc2c(cnn2-c2cccc(F)c2)C(NC2CCSCC2)C1 (stereo not given); -142
O=C1COC2(CCN(Cc3ccncc3)CC2)CN1; -1.81
Cc1ccc(Cl)cc1N1CCN(CC(=O)NC(C)c2ccco2)CC1 (stereo not given); 5.89

Below are 4 molecules. Give each one its cytotoxicity at 10 µM.
1. Cc1nc2ccnn2c(C)c1CCC(=O)N1CCC(C(N)=O)CC1
2. CCc1ccsc1C(=O)N1CCCN(Cc2nccn2CC)CC1
3. CCN(C)c1ncnc2c1CCN(C(=O)c1ccsc1)CC2
4. CSCC[C@H](NC(=O)N1CCC(Cc2ccccc2)CC1)C(=O)O

**Result**
-9.26
1.84
-0.408
-1.55
